Molecular target: Seed linoleate 13S-lipoxygenase-1 (Glycine max) (UniProt P08170)
Sequence (P08170 whole entry): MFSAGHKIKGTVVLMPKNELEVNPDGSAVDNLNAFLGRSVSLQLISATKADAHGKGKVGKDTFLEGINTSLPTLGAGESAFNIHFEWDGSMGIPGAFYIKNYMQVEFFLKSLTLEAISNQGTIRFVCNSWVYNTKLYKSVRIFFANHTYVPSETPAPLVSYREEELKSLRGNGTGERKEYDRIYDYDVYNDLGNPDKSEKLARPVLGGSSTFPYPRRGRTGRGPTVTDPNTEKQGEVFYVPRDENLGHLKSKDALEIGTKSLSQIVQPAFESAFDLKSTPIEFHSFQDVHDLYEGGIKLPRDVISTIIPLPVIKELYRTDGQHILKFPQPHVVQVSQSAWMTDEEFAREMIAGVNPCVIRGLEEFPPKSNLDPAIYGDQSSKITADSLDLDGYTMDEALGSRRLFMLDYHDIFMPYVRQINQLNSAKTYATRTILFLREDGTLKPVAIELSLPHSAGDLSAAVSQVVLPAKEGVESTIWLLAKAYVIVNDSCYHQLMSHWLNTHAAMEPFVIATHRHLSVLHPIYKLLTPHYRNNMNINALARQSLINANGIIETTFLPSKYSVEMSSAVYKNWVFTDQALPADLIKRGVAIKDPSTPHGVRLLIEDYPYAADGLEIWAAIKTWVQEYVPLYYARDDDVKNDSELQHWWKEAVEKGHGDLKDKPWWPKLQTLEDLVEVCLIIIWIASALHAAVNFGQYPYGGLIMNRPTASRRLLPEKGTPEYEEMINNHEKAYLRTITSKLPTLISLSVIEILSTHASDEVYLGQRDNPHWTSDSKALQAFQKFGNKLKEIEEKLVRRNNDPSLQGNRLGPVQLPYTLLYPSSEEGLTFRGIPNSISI
Assay: In vitro inhibition of rabbit LDL oxidation by soybean lipoxygenase at 0.5 uM
Assay type: functional
Endpoint Name: LDL oxidation, % of control (%)
Kindly answer with a numeric value in %, unit omitted.

Consider the following illustrative entries.
COc1ccc([C@@H]2Sc3ccccc3N(CCN(C)C)C(=O)[C@@H]2OC(C)=O)cc1 = 109
Cc1c(C)c2c(c(C)c1O)CC[C@@](C)(CCC[C@H](C)CCC[C@H](C)CCCC(C)C)O2 = 60.2
COc1ccc(CCN(C)CCCN2C(=O)CSC2c2cc(C(C)(C)C)c(O)c(C(C)(C)C)c2)cc1OC (stereo not given) = 8.7
CN(CCCN1C(=O)CSC1c1cc(C(C)(C)C)c(O)c(C(C)(C)C)c1)CCOc1ccc2c(c1)OCO2 (stereo not given) = 12.9

# input Look up and state reported LDL oxidation, % of control for CN(c1nc2ccccc2s1)C1CCN(CCCN2C(=O)CSC2c2cc(C(C)(C)C)c(O)c(C(C)(C)C)c2)CC1 (stereo not given)
# output 25.8

###

Organism: Rattus norvegicus
Assay: In vitro inhibition of veratridine induced rat myocardiac cell death.
Assay type: functional
Endpoint Name: IC>80 (µM)
Dear colleague, please return just the value in µM, with no unit written.

See these solved cases before continuing.
CN(c1nc2ccccc2s1)C1CCN(CCCN2C(=O)CSC2c2cc(C(C)(C)C)c(O)c(C(C)(C)C)c2)CC1 (centres undefined) = 1
CN(CCCN1C(=O)CSC1c1cc(C(C)(C)C)c(O)c(C(C)(C)C)c1)CCOc1ccc2c(c1)OCO2 (centres undefined) = 0.32
COc1ccc(OCCN(C)CCCN2C(=O)CSC2c2cc(C(C)(C)C)c(O)c(C(C)(C)C)c2)cc1OC (centres undefined) = 1

# input Please indicate IC>80 recorded for CC(C)(C)c1cc(C2SCC(=O)N2CCCN2CCC(Cc3ccccc3)CC2)cc(C(C)(C)C)c1O (centres undefined)
# output 0.32

# input Please report IC>80 for the following compound: COc1ccc(CCN(C)CCCN2C(=O)CSC2c2cc(C(C)(C)C)c(O)c(C(C)(C)C)c2)cc1OC (centres undefined)
# output 1

# input Please indicate IC>80 recorded for "CN(c1nc2ccccc2s1)C1CCN(CCCCOc2ccc(F)cc2)CC1"
# output 0.032

# input State, in one line, measured IC>80 of COc1ccc(CN(C)CCCN2C(=O)CSC2c2cc(C(C)(C)C)c(O)c(C(C)(C)C)c2)cc1OC (centres undefined)
# output 1

# input Please report the measured IC>80 for COc1cc2c(cc1OC)CN(CCCN1C(=O)CSC1c1cc(C(C)(C)C)c(O)c(C(C)(C)C)c1)CC2 (centres undefined)
# output 1

###

Measured IC50 accompanies every entry in the list below.
Molecular target: Voltage-dependent L-type calcium channel subunit alpha-1C (Rattus norvegicus)
Sequence (P22002 whole entry): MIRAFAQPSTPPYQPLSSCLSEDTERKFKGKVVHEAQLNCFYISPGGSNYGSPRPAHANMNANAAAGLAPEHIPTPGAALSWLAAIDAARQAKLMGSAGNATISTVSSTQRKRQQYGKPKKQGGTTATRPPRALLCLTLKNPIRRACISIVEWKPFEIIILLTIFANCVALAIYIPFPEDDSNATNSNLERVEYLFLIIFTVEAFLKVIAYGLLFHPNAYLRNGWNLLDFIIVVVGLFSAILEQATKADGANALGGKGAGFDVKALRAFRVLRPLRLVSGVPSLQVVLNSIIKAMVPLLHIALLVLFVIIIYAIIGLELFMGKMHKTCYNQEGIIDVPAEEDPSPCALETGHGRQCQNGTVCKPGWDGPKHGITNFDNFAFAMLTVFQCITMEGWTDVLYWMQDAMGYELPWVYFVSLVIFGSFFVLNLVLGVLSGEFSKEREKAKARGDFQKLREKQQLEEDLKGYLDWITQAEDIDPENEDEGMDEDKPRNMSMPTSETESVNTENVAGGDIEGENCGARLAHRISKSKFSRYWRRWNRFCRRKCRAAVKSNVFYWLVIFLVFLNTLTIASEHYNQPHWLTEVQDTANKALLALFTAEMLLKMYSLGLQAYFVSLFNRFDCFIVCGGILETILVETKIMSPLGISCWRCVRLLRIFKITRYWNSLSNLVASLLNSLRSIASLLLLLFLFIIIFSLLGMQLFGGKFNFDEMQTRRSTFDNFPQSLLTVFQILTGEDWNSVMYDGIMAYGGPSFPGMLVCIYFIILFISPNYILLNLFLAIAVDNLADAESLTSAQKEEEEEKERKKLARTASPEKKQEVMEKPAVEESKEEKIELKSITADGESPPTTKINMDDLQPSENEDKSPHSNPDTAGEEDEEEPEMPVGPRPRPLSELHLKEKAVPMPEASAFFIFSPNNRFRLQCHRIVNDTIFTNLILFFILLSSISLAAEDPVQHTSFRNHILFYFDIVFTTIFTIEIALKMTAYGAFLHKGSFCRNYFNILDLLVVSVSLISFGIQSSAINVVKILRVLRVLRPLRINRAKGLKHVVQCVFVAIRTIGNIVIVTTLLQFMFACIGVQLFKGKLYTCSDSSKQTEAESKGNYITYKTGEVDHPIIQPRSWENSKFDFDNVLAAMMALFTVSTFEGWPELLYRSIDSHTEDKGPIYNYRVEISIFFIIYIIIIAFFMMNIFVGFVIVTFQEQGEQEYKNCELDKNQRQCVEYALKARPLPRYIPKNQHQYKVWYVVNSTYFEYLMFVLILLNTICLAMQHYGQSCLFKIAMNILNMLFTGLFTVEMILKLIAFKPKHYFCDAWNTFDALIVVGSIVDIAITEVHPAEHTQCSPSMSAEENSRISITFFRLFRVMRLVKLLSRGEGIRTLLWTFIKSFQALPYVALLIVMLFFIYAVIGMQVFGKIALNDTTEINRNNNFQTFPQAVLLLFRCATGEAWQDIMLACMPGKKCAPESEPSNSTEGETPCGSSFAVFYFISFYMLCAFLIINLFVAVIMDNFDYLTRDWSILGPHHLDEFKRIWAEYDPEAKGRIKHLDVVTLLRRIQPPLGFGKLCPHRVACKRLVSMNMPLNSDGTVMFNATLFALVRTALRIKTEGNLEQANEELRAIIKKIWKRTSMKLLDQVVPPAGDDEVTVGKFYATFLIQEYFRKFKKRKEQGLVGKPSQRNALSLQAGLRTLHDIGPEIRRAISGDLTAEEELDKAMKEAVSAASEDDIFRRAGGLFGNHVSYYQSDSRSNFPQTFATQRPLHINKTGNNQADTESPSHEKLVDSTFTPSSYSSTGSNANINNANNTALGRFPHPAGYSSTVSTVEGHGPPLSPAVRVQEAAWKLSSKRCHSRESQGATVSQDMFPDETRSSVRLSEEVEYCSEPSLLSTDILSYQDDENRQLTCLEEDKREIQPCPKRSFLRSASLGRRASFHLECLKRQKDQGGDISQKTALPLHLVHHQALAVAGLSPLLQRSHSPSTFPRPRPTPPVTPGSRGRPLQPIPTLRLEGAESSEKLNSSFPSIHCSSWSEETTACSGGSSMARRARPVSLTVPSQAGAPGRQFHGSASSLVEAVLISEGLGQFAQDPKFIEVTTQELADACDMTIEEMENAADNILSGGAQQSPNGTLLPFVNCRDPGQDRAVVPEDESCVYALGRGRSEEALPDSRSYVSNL
Experiment: In vitro inhibition of K+ induced contractions of the isolated rat aorta.
State the answer as a number, implicitly in µM.

Example results:
CCOCCN(C)CCCN1C(=O)CSC1c1cc(C(C)(C)C)c(O)c(C(C)(C)C)c1 (centres undefined) = 0.84
CN(CCCN1C(=O)CSC1c1cc(C(C)(C)C)c(O)c(C(C)(C)C)c1)CC(O)COc1ccccc1 (centres undefined) = 0.42
CN(CCCN1C(=O)CSC1c1cc(C(C)(C)C)c(O)c(C(C)(C)C)c1)CC(O)COc1ccc2c(c1)OCO2 (centres undefined) = 0.43
COc1ccc(CCN(C)CCCN2C(=O)CSC2c2cc(C(C)(C)C)c(O)c(C(C)(C)C)c2)cc1OC (centres undefined) = 0.093
CN(CCCN1C(=O)CSC1c1cc(C(C)(C)C)c(O)c(C(C)(C)C)c1)Cc1ccc2c(c1)OCO2 (centres undefined) = 0.25

# input Answer with the recorded IC50 of CN(c1nc2ccccc2s1)C1CCN(CCCN2C(=O)CSC2c2cc(C(C)(C)C)c(O)c(C(C)(C)C)c2)CC1 (centres undefined) only.
# output 0.23

# input Specify measured IC50 for COc1cc(OCCN(C)CCCN2C(=O)CSC2c2cc(C(C)(C)C)c(O)c(C(C)(C)C)c2)cc(OC)c1OC (centres undefined) .
# output 0.3

# input Respond only with IC50 recorded for CN(CCCN1C(=O)CSC1c1cc(C(C)(C)C)c(O)c(C(C)(C)C)c1)CCOc1ccc2c(c1)OCO2 (centres undefined)
# output 0.062

# input Give the reported value of IC50 for this record: "CN(c1nc2ccccc2s1)C1CCN(CCCCOc2ccc(F)cc2)CC1"
# output 0.76
